ASSAYED_SYSTEM: c-Kit (Homo sapiens (Human), UniProt P10721)
Sequence (P10721 26-976): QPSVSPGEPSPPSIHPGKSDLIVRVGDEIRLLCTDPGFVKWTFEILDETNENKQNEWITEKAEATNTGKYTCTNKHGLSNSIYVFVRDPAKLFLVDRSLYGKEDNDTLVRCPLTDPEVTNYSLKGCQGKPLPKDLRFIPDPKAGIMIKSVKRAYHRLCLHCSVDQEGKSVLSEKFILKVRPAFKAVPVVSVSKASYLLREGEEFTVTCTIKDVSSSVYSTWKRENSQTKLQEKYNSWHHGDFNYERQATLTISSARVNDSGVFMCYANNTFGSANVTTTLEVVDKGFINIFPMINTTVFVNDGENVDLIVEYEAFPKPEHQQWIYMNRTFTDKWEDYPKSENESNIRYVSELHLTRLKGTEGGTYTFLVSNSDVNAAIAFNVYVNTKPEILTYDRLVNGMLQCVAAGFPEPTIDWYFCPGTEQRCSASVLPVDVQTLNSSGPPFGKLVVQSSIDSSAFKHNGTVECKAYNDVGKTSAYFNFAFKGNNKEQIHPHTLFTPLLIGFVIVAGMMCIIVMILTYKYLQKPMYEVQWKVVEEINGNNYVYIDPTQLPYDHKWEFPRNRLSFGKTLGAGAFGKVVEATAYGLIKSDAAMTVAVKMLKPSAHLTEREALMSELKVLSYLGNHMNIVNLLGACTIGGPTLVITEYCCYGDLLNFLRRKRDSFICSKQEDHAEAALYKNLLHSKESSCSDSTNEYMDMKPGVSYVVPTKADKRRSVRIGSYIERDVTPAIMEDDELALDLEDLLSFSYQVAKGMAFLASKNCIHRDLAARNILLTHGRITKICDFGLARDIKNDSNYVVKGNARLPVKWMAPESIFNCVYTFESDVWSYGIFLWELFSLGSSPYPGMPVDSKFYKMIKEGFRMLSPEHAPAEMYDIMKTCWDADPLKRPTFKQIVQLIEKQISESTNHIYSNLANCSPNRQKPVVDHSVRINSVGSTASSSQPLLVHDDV
pIC50: −log10 of the molar value.
OBSERVATION_TYPE: pIC50

CNC1CCN(C(=O)Nc2c(C)[nH]c(/C=C3\C(=O)Nc4ccc(F)cc43)c2C)CC1.Cl
6.54

###

ASSAYED_SYSTEM: UniProt P36888
Sequence (P36888 27-993): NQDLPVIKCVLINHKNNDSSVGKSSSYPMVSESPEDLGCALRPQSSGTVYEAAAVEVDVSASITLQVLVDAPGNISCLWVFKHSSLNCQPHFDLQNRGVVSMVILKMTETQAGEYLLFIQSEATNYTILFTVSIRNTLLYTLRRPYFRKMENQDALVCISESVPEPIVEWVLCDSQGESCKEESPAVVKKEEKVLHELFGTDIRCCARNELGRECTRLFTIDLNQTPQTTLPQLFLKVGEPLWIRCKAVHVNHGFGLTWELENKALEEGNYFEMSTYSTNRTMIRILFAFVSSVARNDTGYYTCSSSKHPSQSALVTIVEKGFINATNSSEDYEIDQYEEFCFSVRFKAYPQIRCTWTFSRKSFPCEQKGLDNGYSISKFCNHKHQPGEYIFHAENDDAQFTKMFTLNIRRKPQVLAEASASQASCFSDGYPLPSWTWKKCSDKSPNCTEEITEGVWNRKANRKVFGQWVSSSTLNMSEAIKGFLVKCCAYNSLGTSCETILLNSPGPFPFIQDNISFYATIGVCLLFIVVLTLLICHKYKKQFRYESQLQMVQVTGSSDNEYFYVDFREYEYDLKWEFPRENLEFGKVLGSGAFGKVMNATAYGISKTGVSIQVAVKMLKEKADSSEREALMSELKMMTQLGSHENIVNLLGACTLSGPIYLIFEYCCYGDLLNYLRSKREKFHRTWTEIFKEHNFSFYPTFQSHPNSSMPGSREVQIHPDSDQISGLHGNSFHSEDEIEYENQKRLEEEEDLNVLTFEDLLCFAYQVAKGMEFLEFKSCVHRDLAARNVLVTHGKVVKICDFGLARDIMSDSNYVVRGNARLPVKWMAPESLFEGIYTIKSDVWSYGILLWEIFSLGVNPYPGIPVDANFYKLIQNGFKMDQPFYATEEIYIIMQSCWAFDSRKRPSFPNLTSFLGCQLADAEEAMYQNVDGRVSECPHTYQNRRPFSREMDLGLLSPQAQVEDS
OBSERVATION_TYPE: IC50

CNC1CCN(C(=O)Nc2c(C)[nH]c(/C=C3\C(=O)Nc4ccc(F)cc43)c2C)CC1.Cl
8.8 nM

###

ASSAYED_SYSTEM: FGFR1 (Homo sapiens (Human))
Sequence (P11362 22-822, species assumed): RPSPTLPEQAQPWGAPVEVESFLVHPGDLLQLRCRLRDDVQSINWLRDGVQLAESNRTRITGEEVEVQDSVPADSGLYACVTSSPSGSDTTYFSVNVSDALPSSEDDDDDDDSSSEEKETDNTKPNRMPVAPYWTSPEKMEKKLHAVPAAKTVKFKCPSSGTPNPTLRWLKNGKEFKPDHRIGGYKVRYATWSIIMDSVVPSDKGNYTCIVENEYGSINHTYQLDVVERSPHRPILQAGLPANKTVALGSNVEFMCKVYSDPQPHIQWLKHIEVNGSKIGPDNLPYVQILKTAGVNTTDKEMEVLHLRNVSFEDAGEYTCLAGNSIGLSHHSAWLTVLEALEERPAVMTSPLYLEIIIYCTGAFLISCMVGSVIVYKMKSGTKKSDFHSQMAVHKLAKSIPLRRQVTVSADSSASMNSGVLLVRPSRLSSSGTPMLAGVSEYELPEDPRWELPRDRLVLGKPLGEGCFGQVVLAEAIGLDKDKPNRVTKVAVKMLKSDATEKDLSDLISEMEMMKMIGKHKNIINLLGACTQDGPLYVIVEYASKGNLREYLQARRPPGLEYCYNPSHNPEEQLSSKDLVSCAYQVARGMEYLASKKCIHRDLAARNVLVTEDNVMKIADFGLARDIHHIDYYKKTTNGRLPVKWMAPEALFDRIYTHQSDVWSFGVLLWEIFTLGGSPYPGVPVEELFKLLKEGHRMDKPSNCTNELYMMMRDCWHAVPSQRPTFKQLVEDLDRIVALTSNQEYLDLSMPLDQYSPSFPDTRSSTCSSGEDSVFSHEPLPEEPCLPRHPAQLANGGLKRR
pIC50: −log10 of the molar value.
OBSERVATION_TYPE: pIC50

CNC1CCN(C(=O)Nc2c(C)[nH]c(/C=C3\C(=O)Nc4ccc(F)cc43)c2C)CC1.Cl [Compound 5]
5.63

###

ASSAYED_SYSTEM: PDGFRβ (Homo sapiens (Human), UniProt P09619)
Sequence (P09619 33-1106, species assumed): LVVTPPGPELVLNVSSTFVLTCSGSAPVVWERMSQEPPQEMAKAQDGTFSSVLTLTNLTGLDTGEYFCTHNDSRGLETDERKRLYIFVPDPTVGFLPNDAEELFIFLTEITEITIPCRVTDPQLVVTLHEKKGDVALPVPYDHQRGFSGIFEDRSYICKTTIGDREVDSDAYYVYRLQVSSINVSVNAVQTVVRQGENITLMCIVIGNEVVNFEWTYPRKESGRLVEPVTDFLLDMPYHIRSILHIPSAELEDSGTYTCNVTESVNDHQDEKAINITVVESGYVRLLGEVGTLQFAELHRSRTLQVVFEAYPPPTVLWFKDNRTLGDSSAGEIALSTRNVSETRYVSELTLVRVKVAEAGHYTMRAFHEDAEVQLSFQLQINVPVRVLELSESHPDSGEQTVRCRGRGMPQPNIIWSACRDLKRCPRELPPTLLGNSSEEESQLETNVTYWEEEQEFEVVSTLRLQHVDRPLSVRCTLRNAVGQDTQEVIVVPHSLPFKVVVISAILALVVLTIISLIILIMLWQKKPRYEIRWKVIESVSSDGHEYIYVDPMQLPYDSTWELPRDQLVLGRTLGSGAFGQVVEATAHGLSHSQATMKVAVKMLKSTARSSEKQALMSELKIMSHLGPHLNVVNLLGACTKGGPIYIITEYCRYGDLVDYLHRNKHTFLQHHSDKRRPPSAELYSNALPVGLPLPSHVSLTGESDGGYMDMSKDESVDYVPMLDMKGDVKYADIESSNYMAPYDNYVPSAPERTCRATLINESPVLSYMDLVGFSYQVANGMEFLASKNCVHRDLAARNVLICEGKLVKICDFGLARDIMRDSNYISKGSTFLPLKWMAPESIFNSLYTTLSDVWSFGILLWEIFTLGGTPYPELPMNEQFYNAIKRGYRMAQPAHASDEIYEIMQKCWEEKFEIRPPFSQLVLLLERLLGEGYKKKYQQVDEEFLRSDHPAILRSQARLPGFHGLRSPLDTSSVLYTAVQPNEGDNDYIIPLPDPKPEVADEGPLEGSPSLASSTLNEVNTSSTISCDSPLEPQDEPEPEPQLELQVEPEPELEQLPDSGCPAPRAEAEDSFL
pIC50: −log10 of the molar value.
OBSERVATION_TYPE: pIC50

CNC1CCN(C(=O)Nc2c(C)[nH]c(/C=C3\C(=O)Nc4ccc(F)cc43)c2C)CC1.Cl
6.72
